Tested on: BuChE (butyrylcholinesterase)
Experiment: Inhibition of rat serum BuChE at 50 uM using S-butylthiocholine iodide as substrate measured after 15 mins by Ellman's method relative to control
Settings: probe S-butylthiocholine iodide
Provide the reported inhibition at 0.25 h, 50 µM of each item.
One number for each entry, in %.

Answered examples (5):
[[record]]
moleculesmiles = "CCN(CCCOc1cc(O)c2c(=O)c3ccccc3sc2c1)Cc1ccccc1OC"
measureunit = "%"
val = 17.3

[[record]]
moleculesmiles = "COc1ccccc1CN(C)CCCCOc1cc(O)c2c(=O)c3ccccc3sc2c1"
measureunit = "%"
val = 5.62

[[record]]
moleculesmiles = "CCN(CCCOc1cc(O)c2c(=O)c3ccccc3sc2c1)Cc1ccccc1N(C)C"
measureunit = "%"
val = 22.4

[[record]]
moleculesmiles = "CCN(CCCCCCOc1cc(O)c2c(=O)c3ccccc3sc2c1)Cc1ccccc1N(C)C"
measureunit = "%"
val = 28.7

[[record]]
moleculesmiles = "CCN(CCCCOc1ccc(-c2coc3cc(OCCCCN(CC)Cc4ccccc4OC)cc(O)c3c2=O)cc1)Cc1ccccc1OC"
measureunit = "%"
val = 20


Now for another entry.
Ask | Sample "COc1ccccc1CN(C)CCCOc1cc(O)c2c(=O)c3ccccc3sc2c1" — what was its inhibition at 0.25 h, 50 µM?
Reply | 30.2

Each recorded value in this set is attributed to ChEMBL document CHEMBL3992562.
